# experimental.system: purified recombinantly expressed human SSAO (Homo sapiens, UniProt Q16853)
# Sequence (Q16853 29-763 limits assumed): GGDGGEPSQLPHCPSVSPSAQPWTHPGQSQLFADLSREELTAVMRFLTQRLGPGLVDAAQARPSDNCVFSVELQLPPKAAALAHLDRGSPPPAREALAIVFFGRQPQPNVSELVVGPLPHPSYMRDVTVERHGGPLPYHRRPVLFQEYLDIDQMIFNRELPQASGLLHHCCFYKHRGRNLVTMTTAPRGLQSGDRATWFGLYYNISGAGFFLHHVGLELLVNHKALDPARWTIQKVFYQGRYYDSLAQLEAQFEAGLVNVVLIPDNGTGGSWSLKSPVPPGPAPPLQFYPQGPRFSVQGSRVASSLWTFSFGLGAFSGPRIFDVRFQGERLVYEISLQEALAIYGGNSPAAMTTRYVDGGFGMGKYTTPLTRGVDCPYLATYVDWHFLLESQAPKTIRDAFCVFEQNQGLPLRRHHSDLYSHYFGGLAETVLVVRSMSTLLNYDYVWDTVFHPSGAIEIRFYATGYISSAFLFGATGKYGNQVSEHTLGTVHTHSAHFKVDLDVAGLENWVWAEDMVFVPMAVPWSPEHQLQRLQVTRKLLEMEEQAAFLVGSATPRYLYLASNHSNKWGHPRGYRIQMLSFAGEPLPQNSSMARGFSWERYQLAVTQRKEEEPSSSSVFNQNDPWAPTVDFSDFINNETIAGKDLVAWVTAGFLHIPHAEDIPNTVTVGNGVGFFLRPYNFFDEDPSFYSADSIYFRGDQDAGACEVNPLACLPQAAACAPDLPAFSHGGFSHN
# experiment: SSAO enzyme inhibition assay (benzylamine substrate; hydrogen peroxide/HRP-coupled or 14C-benzaldehyde detection)
# particulars: human recombinant SSAO, benzylamine as substrate, rt
readout.label: IC50 (nM)

Illustrative cases are given below, each with its answer.
| compound | IC50 (nM) |
| --- | --- |
| CC(O)c1cn2c(CO)c(-c3ccc(Cl)cc3)nc2s1 (stereo not shown) | 89 |
| OCc1c(-c2ccc(Br)cc2)nc2ccc(C(F)(F)F)cn12 | 88 |

I = O=C(c1ccc2nc(-c3ccc(Cl)cc3)c(CO)n2c1)N1CCC(CO)CC1
II = COc1cccc(-c2nc3cnc(Br)cn3c2CO)c1
Look at I and II . Which one has the lower recorded IC50 number? Bench note: the answer is the label of the chosen record. I
